The origin of these recorded values is PubChem BioAssay.

System: Human papillomavirus type 1a protein E7 (residues 44-93)
Assay: HPV1a E7 fragment binders on microarrays, primary screen, biochemical, small-molecule microarray, residues 44-93, 635 nm fluorescence (AID 1108);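 note: E7 fragment applied at 1 µg/mL in TBST for 1 h at 4 C; score combines spot fluorescence with its signal to noise ratio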
Details: small-molecule microarray binding, fluorescence 635 nm; higher = more signal
# composite z-score per entry
Test readout: composite z-score

Compound	Test readout	Test result
COc1ccc(CCNC(=O)[C@@H]2c3ccccc3C(=O)N(CC34CC5CC(CC(C5)C3)C4)[C@H]2c2ccc(CO)cc2)cc1	composite z-score	1.29
[N-]=[N+]=Nc1ccccc1[C@@H]1OC(c2ccc(OCCCO)cc2)=N[C@]1(Cc1ccccc1)C(N)=O	composite z-score	1.06
C=CCC(OC(C)=O)[C@@H]1[C@@H](N(Cc2cc3ccccc3o2)C(=O)Cc2ccc(OC)cc2)c2cc(OCCCO)ccc2N1C(=O)Cc1ccc2ccccc2c1 (stereo not given in full)	composite z-score	-0.687
C=C(COC)/C(=C/C[C@H](OC(=O)c1ccncc1)c1ccc(OCCO)cc1)c1cc(C(=O)OC)ccc1OC	composite z-score	1.42
[N-]=[N+]=NCc1ccccc1[C@H]1OC(c2ccc(OCCCO)cc2)=N[C@@]1(Cc1ccccc1)C(=O)N1CCOCC1	composite z-score	1.06
COC(=O)[C@@]1(Cc2ccc(OC)cc2)[C@@H]2[C@@H](CC(=O)[C@H]2CC(=O)C(=O)N2CCCC2)CN1C(=O)c1ccccc1	composite z-score	0.43
CN(C)CCCC[C@@H]1NC(=O)[C@@H]2C[C@H](C(=O)NCc3ccc(F)cc3)[C@H](c3ccc(O)cc3)N2C1=O	composite z-score	0.16
CN1C(=O)C2C=CC(C(O)c3ccc(-c4ccccc4)s3)N(Nc3ccccc3)C2C1=O (stereo not given)	composite z-score	0.965
O=C1C2C=CC(C(O)c3ccc([N+](=O)[O-])cc3)N(Nc3ccccc3)C2C(=O)N1c1ccccc1 (stereo not given)	composite z-score	0.342
CN(C)CCCCNC(=O)[C@H]1C[C@H]2C(=O)NCC(=O)N2[C@H]1c1cccc(OCCO)c1	composite z-score	-0.433
C[C@]1(C(=O)NCC(F)(F)F)c2ccccc2C(=O)N(Cc2ccc(OC(F)(F)F)cc2)[C@H]1c1ccc(CO)cc1	composite z-score	0.26
COc1ccc([Si](C)(C)[C@H]2[C@H](CC(=O)N3Cc4ccccc4C[C@H]3CO)O[C@@]3(C(=O)N(Cc4cccc(N5C(=O)c6cccc7cccc5c67)c4)c4ccccc43)[C@@H]2C)cc1	composite z-score	1.19
O=C1C2C=CC(C(O)c3cccc(O)c3)N(Nc3ccccc3F)C2C(=O)N1c1ccccc1 (stereo not given)	composite z-score	0.623
C=C(C(=O)CC[C@@H](OC(C)=O)c1cccc(OCCO)c1)C(C)C	composite z-score	0.974
CC(C)CNC(=O)[C@@H]1c2ccccc2C(=O)N(C2Cc3ccccc3C2)[C@H]1c1ccc(CO)cc1	composite z-score	1.11

###

# z-score per entry
Assay: HepG2 liver cancer cell viability effects, profiling panel, resazurin fluorescence, 24 h, PK04 Diversity Set (AID 1172); note: test concentration not given here
Conditions: higher = more signal

Compound	z-score
COc1ccc(C#Cc2ccc3c(c2)[C@]2(C(=O)N3)[C@H](C(=O)Nc3nc4ccccc4s3)[C@H]3C(=O)O[C@H](c4ccccc4)[C@H](c4ccccc4)N3[C@@H]2c2ccc(OCCO)cc2)cc1	0.839
CC(C)c1ccc(NN2C(C(O)C(C)C)C=CC3C(=O)N(c4ccccc4)C(=O)C32)cc1 (configuration not stated)	-1.65
NC(=O)NCC#Cc1ccc2c(c1)[C@]1(C(=O)N2)[C@H](C(=O)Nc2nc3ccccc3s2)[C@H]2C(=O)O[C@H](c3ccccc3)[C@H](c3ccccc3)N2[C@@H]1c1ccc(OCCO)cc1	1.1
O=C1O[C@@H](c2ccccc2)[C@@H](c2ccccc2)N2[C@@H](c3ccc(OCCO)cc3)[C@]3(C(=O)Nc4ccc(C#CCCO)cc43)[C@@H](C(=O)Nc3nc4ccccc4s3)[C@H]12	1.44
C=C(COC)C(=O)CC[C@@H](OC(C)=O)c1ccc(OCCO)cc1	-0.487
O=C1O[C@@H](c2ccccc2)[C@@H](c2ccccc2)N2[C@@H](c3ccc(O)cc3)[C@]3(C(=O)Nc4ccc(C#CC5=CCCCC5)cc43)[C@@H](C(=O)N3CCCCCCC3)[C@H]12	-0.109
COc1ccc([Si](C)(C)[C@@H]2[C@@H](CCO)O[C@]3(C(=O)N(Cc4ccccc4)c4ccc(N5C(=O)c6ccccc6Oc6ccccc65)cc43)[C@H]2C)cc1	1.09
COc1ccc(C(O)C2C=CC3C(=O)N(C)C(=O)C3N2Nc2ccc([N+](=O)[O-])cc2[N+](=O)[O-])cc1OCc1ccccc1 (configuration not stated)	-0.448
CCOC(=O)C[C@H]1[C@H](OC(=O)c2ccc(-c3ccccc3)cc2)[C@@H](NC(=O)CC(C)C)c2cc(OCCCO)ccc2N1C(=O)Cc1ccc(OC)cc1	-0.378
NC(=O)N1C(=O)C2C(C1=O)C1C=C(CCCO)C2C(c2ccc(CN3CCCC3)cc2)N1Cc1cccc(OC(F)(F)F)c1 (configuration not stated)	-0.708
COCCOC(=O)N1C(=O)[C@@]2(c3cc(C#CC4(O)CCCCCC4)ccc31)[C@H](c1ccc(OCCO)cc1)N1[C@H](c3ccccc3)[C@H](c3ccccc3)OC(=O)[C@H]1[C@@H]2C(=O)N1CCCCCCC1	-0.768
C=CCC(OC(C)=O)[C@@H]1[C@@H](N(Cc2cccc3ccccc23)C(=O)c2ccc(C)cc2)c2cc(OCCCO)ccc2N1C(=O)c1ccc2ccccc2n1 (some centres not stated)	0.374

###

Tested on: Chordin-like protein 2 (CHRDL2)
Assay: CHRDL2 small-molecule binders, primary screen, biochemical, small-molecule microarray, 635 nm fluorescence (AID 1126);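 note: printed compound slides probed with Chrdl2 protein at 4 µg/mL for 1 h at 4 C; score merges 667 nm emission intensity with signal to noise over three replicate slides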
Details: small-molecule microarray binding, fluorescence 635 nm; higher = more signal

Molecule	composite z-score
CN(C)CCCC[C@@H]1NC(=O)[C@@H]2C[C@H](C(=O)NCCCCCCNC(=O)CS)[C@H](c3cccc(OCCO)c3)N2C1=O	0.402
COCCCN1C(=O)[C@@]2(Cc3ccccc31)c1ccccc1C(=O)N(Cc1ccccc1OC)[C@H]2c1ccc(CO)cc1	-1.21
C=C(CCCC)C(=O)CC[C@H](OC(C)=O)c1ccccc1OCCO	0.544
CCCC=C(CCC)[C@@H](NS(=O)(=O)c1ccc(Cl)cc1)c1ccccc1	-0.845
C[C@H]1C2[C@H](Cc3ccccc3)NC(=O)[C@]23C(=O)NCC(=O)N2CCC[C@H]2C(=O)NC/C=C\C/C=C/C3[C@@H]2O[C@]12C (stereo partly drawn)	0.486
C[N+](C)(C)CCCCCCNC(=O)[C@H]1C[C@H]2C(=O)NCC(=O)N2[C@H]1c1cccc(OCCO)c1	1.36
CCCCC(=C=CC[C@@H](O)c1cccc(OCCO)c1)CCO	-0.596
CCCCC(=C=CC[C@@H](O)c1ccc(OCCO)cc1)C[C@@H](O)c1ccccn1	0.102

###

Assay: basal RPMI8226 mitochondrial membrane potential changes, profiling panel, cell-based, JC-1 fluorescence, 24 h, 100 nL compound (AID 1169); note: test concentration not given here
Details: RPMI8226 myeloma, JC-1 mitochondrial potential fluorescence, higher = more signal
# z-score per entry

Smiles structure	z-score
C=C(COC)/C(=C/C[C@H](OC(=O)c1ccncc1)c1cccc(OCCO)c1)c1cnc2ccccc2c1	0.568
C=CCN1C(=O)[C@]2(O[C@H](CCO)[C@@H]([Si](C)(C)c3ccc(OC)cc3)[C@@H]2C)c2ccccc21	-1.18
O=C1N(Cc2ccccc2)c2ccccc2[C@H]2OC(c3ccc(OCCCO)cc3)=N[C@@]12Cc1ccccc1	-1.26
CC(C)(C)OC(=O)CC[C@]1(C(N)=O)N=C(c2ccc(OCCCO)cc2)O[C@H]1c1ccccc1CN=[N+]=[N-]	0.469
CO[C@H]1O[C@H](CO)[C@@H](OC(=O)Nc2ccccc2)[C@@H]2OC(=O)[C@H](Cc3ccccc3)C/C=C/C[C@@H](Cc3ccccc3)C(=O)O[C@@H]12	-0.865
Cc1c(NC(=O)/C(C#N)=C/c2ccc(Cl)cc2)c(=O)n(-c2ccccc2)n1C	-0.0999
NC(=O)NCC#Cc1ccc2c(c1)[C@]1(C(=O)N2)[C@H](C(=O)N2CCCCCCC2)[C@H]2C(=O)O[C@H](c3ccccc3)[C@H](c3ccccc3)N2[C@@H]1c1ccc(O)cc1	-0.981

###

Assay: mitochondrial membrane potential change in A549 cells, profiling panel, cell-based, JC-1 fluorescence, basal, 24 h, 100 nL (AID 1138);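 note: A549 lung adenocarcinoma cells under basal conditions with no added stimulus; test concentration not given here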
Conditions: higher = more signal

Compound	z-score
COC(=O)[C@@]1(Cc2ccc(OC)cc2)[C@@H]2[C@@H](CC(=O)[C@H]2CC(=O)C(=O)N2CCCC2)CN1C(=O)c1ccccc1	0.483
C=CC[C@]1(C(=O)NCCCOC)N=C(c2ccc(OCCCO)cc2)O[C@H]1c1ccccc1	0.266
NC(=O)N1C(=O)C2C(C1=O)C1C=C(CCCO)C2C(c2ccc(CN3CCCC3)cc2)N1Cc1cccc(OC(F)(F)F)c1 (stereo not drawn)	1.39
C[N+](C)(C)CCCCCCNC(=O)[C@H]1C[C@H]2C(=O)NCC(=O)N2[C@H]1c1cccc(OCCO)c1	-0.883
COCCOC(=O)N1C(=O)[C@@]2(c3cc(C#CC4(O)CCCCCC4)ccc31)[C@H](c1ccccc1OCCO)N1[C@H](c3ccccc3)[C@H](c3ccccc3)OC(=O)[C@H]1[C@@H]2C(=O)N1CCCCCCC1	-0.768
N#Cc1ccc(C(O)C2C=CC3C(=O)N(c4ccccc4)C(=O)C3N2Nc2ccc([N+](=O)[O-])cc2)cc1 (stereo not drawn)	-2.34
O=C1O[C@H](c2ccccc2)[C@H](c2ccccc2)N2[C@H]1[C@@H](C(=O)NC[C@H](O)c1ccccc1)[C@]1(C(=O)Nc3ccc(C#CCCO)cc31)[C@H]2c1ccccc1OCCO	-0.223
COC(=O)[C@@]1(Cc2ccc(OC)cc2)[C@H]2c3cc(C(=O)N(C)C)n(Cc4ccsc4Br)c3C[C@H]2CN1C(=O)c1ccccc1	0.292
Cc1ccc(S[C@]2(C(=O)NCCN3CCOCC3)CC(=O)N(C3CCCCC3)[C@@H]2c2ccc(CO)cc2I)cc1	1.23
CCOC(=O)C1=CC[C@@H](c2ccccc2)N(S(=O)(=O)c2ccc(C)cc2)[C@H]1C#N	-0.604
COCCOC(=O)N1C(=O)[C@@]2(c3cc(C#Cc4ccc(OC)cc4)ccc31)[C@H](C(=O)Nc1nc3ccccc3s1)[C@H]1C(=O)O[C@H](c3ccccc3)[C@H](c3ccccc3)N1[C@@H]2c1ccccc1OCCO	-1.75
CC(C)C[C@@H]1NC(=O)[C@H]2C[C@@H](C(=O)NCCCCCCNC(=O)CS)[C@@H](c3ccc(O)cc3)N2C1=O	-1.02
COCCOC(=O)N1C(=O)[C@@]2(c3cc(C#CC4(O)CCCCCC4)ccc31)[C@H](c1ccc(OCCO)cc1)N1[C@H](c3ccccc3)[C@H](c3ccccc3)OC(=O)[C@H]1[C@@H]2C(N)=O	-1.27
